# Test system: HEK-293T
# Assay Procedure: Multiplex assay against HEK293T
# Assay type: toxicity, cell-based
# Run Conditions: human, 24 h, 10 µM, compound concentration 10 uM, replicate 1
Experimental Endpoint: Population Mitochondria Different-Phenotype (%)
Response body: numeric value in %, unit text excluded.

Guide cases for Population Mitochondria Different-Phenotype (%), answers given:
>>> reported_measurement("C=CC(=O)Nc1cc2c(Nc3ccc(F)c(Cl)c3)ncnc2cc1OCCCN1CCOCC1.Cl.Cl [CANERTINIB DIHYDROCHLORIDE]")
7
>>> reported_measurement("CN1CCN(c2ccc(OC(F)(F)F)c(Nc3ncc4c(n3)-c3c(c(C(N)=O)nn3CCO)CC4)c2)CC1")
95
>>> reported_measurement("CN(C)C(=O)/C(C#N)=C/c1ccc(-c2nc3cnc4[nH]ccc4c3n2C2CCCCC2)o1")
61

Problem: Look at this compound and give its reported Population Mitochondria Different-Phenotype (%). Cc1nc(Nc2n[nH]c3c2CN(C(=O)N[C@H](CN(C)C)c2ccccc2)C3(C)C)c2sccc2n1
Solution: 24

Problem: Look at this compound and give its reported Population Mitochondria Different-Phenotype (%). CN(C)C(=O)N[C@H]1CC[C@H](CCN2CCN(c3cccc(Cl)c3Cl)CC2)CC1.Cl [CARIPRAZINE HYDROCHLORIDE]
Solution: 98

###

# System: Fibroblast
# Assay Procedure: Multiplex assay against human fibroblast
# Format: toxicity, cell-based
# Run Conditions: 12 h, 1 µM, compound concentration 1 uM, replicate 2
Each item that follows carries a reported Population Tubulin-Different-Phenotype (%).
Response body: numeric value in %, unit text excluded.

Guide cases for Population Tubulin-Different-Phenotype (%), answers given:
>>> reported_measurement("CC[C@H](C)C(=O)O[C@H]1C[C@@H](C)C=C2C=C[C@H](C)[C@H](CC[C@@H]3C[C@@H](O)CC(=O)O3)[C@H]21")
3
>>> reported_measurement("O=C1NCN(c2ccccc2)C12CCN(CCCOc1ccc(F)cc1)CC2 [SPIRAMIDE]")
6
>>> reported_measurement("CN1CCCC(n2nc(Cc3ccc(Cl)cc3)c3ccccc3c2=O)CC1.Cl (stereo not drawn) [AZELASTINE HYDROCHLORIDE]")
68
>>> reported_measurement("Cc1csc2c(N[C@@H](C)CN3CCN(S(=O)(=O)c4ccc(Cl)c(Cl)c4)CC3)ncnc12")
47
>>> reported_measurement("Cc1cc(C)cc(-c2cnc3cc(Cl)c(-c4cccc(O)c4)cc3c2OCCCN)c1")
56
>>> reported_measurement("Cc1nc(-c2cn3c(n2)-c2ccc(-c4cnn(C(C)(C)C(N)=O)c4)cc2OCC3)n(C(C)C)n1")
60
>>> reported_measurement("CCN(CC)CCCCNc1ncc2cc(-c3cc(OC)cc(OC)c3)c(NC(=O)NC(C)(C)C)nc2n1")
0

Turning now to a further record.
Problem: Give Population Tubulin-Different-Phenotype (%) (Fibroblast) of the following compound: NC(=O)Nc1cc(-c2cccc(F)c2)sc1C(=O)N[C@H]1CCCNC1
Solution: 13

###

# System: Fibroblast
# Assay Procedure: Multiplex assay against human fibroblast
# Format: toxicity, cell-based
# Run Conditions: 48 h, 1 µM, compound concentration 1 uM, replicate 1
Each item that follows carries a reported Population Hoechst High Intensity Objects (%).
Response body: numeric value in %, unit text excluded.

>>> reported_measurement("CN1CCN(CCOc2cc(OC3CCOCC3)c3c(Nc4c(Cl)ccc5c4OCO5)ncnc3c2)CC1 [SARACATINIB]")
10
>>> reported_measurement("c1cn2cc(-c3ccc4cn[nH]c4c3)nc(Nc3ccc(N4CCOCC4)cc3)c2n1 [ENTOSPLETINIB]")
15
>>> reported_measurement("CNc1nc(NCc2ccc(NS(C)(=O)=O)cc2Cl)cc(-c2ccccn2)n1")
17

Problem: Look at this compound and give its reported Population Hoechst High Intensity Objects (%). Cc1cc(C)cc(-c2cnc3cc(Cl)c(-c4cccc(O)c4)cc3c2OCCCN)c1
Solution: 20

Problem: Look at this compound and give its reported Population Hoechst High Intensity Objects (%). C=CC(=O)Nc1cccc(C(=O)Nc2ccc(Nc3cc(-c4[nH]c(SC)nc4C)ccn3)cc2)c1
Solution: 11

Problem: Look at this compound and give its reported Population Hoechst High Intensity Objects (%). C[C@@H](NCCCc1cccc(C(F)(F)F)c1)c1cccc2ccccc12.Cl [CINACALCET HYDROCHLORIDE]
Solution: 19

Problem: Look at this compound and give its reported Population Hoechst High Intensity Objects (%). CC(C)NCC(O)COc1ccc(CCOCC2CC2)cc1.Cl (centres undefined) [BETAXOLOL HYDROCHLORIDE]
Solution: 12

Problem: Look at this compound and give its reported Population Hoechst High Intensity Objects (%). CN1CCCC(n2nc(Cc3ccc(Cl)cc3)c3ccccc3c2=O)CC1.Cl (centres undefined) [AZELASTINE HYDROCHLORIDE]
Solution: 11

Problem: Look at this compound and give its reported Population Hoechst High Intensity Objects (%). OC1(c2ccc(Cl)cc2)CCN(Cc2c[nH]c3ccccc23)CC1
Solution: 0

###

# Tested on: Fibroblast
# Assay Procedure: Multiplex assay against human fibroblast
# Type: toxicity, cell-based
# Run Conditions: 48 h, 10 µM, compound concentration 10 uM, replicate 2
Experimental Endpoint: Population Membrane Permeable-Phenotype (%)
// return the numeric value with its unit appended

Guide cases for Population Membrane Permeable-Phenotype (%), answers given:
>>> reported_measurement("COc1cc2nccc(Oc3ccc(NC(=O)Nc4cc(C)on4)c(Cl)c3)c2cc1OC.O")
"0%"
>>> reported_measurement("O=C1NCN(c2ccccc2)C12CCN(CCCOc1ccc(F)cc1)CC2 [SPIRAMIDE]")
"8%"

Problem: Give Population Membrane Permeable-Phenotype (%) (Fibroblast) of the following molecule: CN(C)C(=O)/C(C#N)=C/c1ccc(-c2nc3cnc4[nH]ccc4c3n2C2CCCCC2)o1
Solution: 9%

Problem: Give Population Membrane Permeable-Phenotype (%) (Fibroblast) of the following molecule: Cn1cc(-c2[nH]c3cc(NC(=O)[C@H](N)C4CCCCC4)cc4c3c2C=NNC4=O)cn1
Solution: 11%

Problem: Give Population Membrane Permeable-Phenotype (%) (Fibroblast) of the following molecule: CN(C)C(=O)N[C@H]1CC[C@H](CCN2CCN(c3cccc(Cl)c3Cl)CC2)CC1.Cl [CARIPRAZINE HYDROCHLORIDE]
Solution: 7%

Problem: Give Population Membrane Permeable-Phenotype (%) (Fibroblast) of the following molecule: Cc1[nH]c(/C=C2\C(=O)Nc3ccc(S(=O)(=O)N(C)c4cccc(Cl)c4)cc32)c(C)c1C(=O)N1CCN(C)CC1
Solution: 25%

Problem: Give Population Membrane Permeable-Phenotype (%) (Fibroblast) of the following molecule: CCn1c(=O)c(-c2ccc(Cl)cc2Cl)cc2cnc(Nc3ccc(N4CCNCC4)c(F)c3)nc21
Solution: 65%

Problem: Give Population Membrane Permeable-Phenotype (%) (Fibroblast) of the following molecule: C[C@@]1(C(=O)Nc2ccc(F)nc2)CCCN1c1nc(Nc2cc(C3CC3)n[nH]2)c2cccn2n1 [BMS-754807]
Solution: 24%

###

Each item that follows carries a reported Population Tubulin-Different-Phenotype (%).
# Tested on: Fibroblast
# Assay Procedure: Multiplex assay against human fibroblast
# Type: toxicity, cell-based
# Run Conditions: 12 h, 1 µM, compound concentration 1 uM, replicate 1
Response body: numeric value in %, unit text excluded.

Guide cases for Population Tubulin-Different-Phenotype (%), answers given:
>>> reported_measurement("Cn1cc(-c2[nH]c3cc(NC(=O)[C@H](N)C4CCCCC4)cc4c3c2C=NNC4=O)cn1")
28
>>> reported_measurement("OC1(c2ccc(Cl)cc2)CCN(Cc2c[nH]c3ccccc23)CC1")
33
>>> reported_measurement("C=CC(=O)Nc1ccc2ncnc(Nc3ccc(OCc4cccc(F)c4)c(Cl)c3)c2c1.Cc1ccc(S(=O)(=O)O)cc1")
26

Problem: Look at this compound and give its reported Population Tubulin-Different-Phenotype (%). Cc1c(-c2ccc(O)cc2)n(Cc2ccc(OCCN3CCCCCC3)cc2)c2ccc(O)cc12
Solution: 58

Problem: Look at this compound and give its reported Population Tubulin-Different-Phenotype (%). CNc1nc(NCc2ccc(NS(C)(=O)=O)cc2Cl)cc(-c2ccccn2)n1
Solution: 41

Problem: Look at this compound and give its reported Population Tubulin-Different-Phenotype (%). Cc1nc(Nc2n[nH]c3c2CN(C(=O)N[C@H](CN(C)C)c2ccccc2)C3(C)C)c2sccc2n1
Solution: 2

Problem: Look at this compound and give its reported Population Tubulin-Different-Phenotype (%). Cl.N#Cc1ccc2[nH]cc(CCCCN3CCN(c4ccc5oc(C(N)=O)cc5c4)CC3)c2c1 [VILAZODONE HYDROCHLORIDE]
Solution: 47

Problem: Look at this compound and give its reported Population Tubulin-Different-Phenotype (%). Cc1csc2c(N[C@@H](C)CN3CCN(S(=O)(=O)c4ccc(Cl)c(Cl)c4)CC3)ncnc12
Solution: 87

Problem: Look at this compound and give its reported Population Tubulin-Different-Phenotype (%). CN1CCN(CCOc2cc(OC3CCOCC3)c3c(Nc4c(Cl)ccc5c4OCO5)ncnc3c2)CC1
Solution: 43

Problem: Look at this compound and give its reported Population Tubulin-Different-Phenotype (%). CCN(CC)CCCCNc1ncc2cc(-c3cc(OC)cc(OC)c3)c(NC(=O)NC(C)(C)C)nc2n1
Solution: 8
